system-name: 5HT2A receptor (Homo sapiens, UniProt P28223)
Sequence (P28223 whole entry): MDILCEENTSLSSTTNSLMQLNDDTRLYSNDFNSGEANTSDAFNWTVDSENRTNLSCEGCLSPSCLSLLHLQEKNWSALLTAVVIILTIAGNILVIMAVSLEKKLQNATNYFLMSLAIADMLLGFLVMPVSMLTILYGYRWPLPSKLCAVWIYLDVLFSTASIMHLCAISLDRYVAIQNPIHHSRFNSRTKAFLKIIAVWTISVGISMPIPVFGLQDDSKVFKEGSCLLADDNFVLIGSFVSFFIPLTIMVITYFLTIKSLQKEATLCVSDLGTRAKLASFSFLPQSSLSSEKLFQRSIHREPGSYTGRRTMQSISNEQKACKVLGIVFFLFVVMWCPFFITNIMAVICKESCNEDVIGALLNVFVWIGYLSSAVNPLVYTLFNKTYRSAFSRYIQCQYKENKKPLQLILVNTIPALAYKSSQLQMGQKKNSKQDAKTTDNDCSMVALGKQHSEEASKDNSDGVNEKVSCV
test-method-notes: biochemical
Assay type: binding
Set-up: expressed in transfected cells; crude membranes
stated-conditions: secondary radioligand binding, Ki from IC50 by Cheng-Prusoff; read-out: 5HT2A Ki
measure: pKi
Scale: negative log10 of molar concentration, which is what pKi denotes.

IN: Consider the molecule "CC(C)c1ccc2[nH]cc(C3=CCCNC3)c2c1" and give its measured pKi.
OUT: 7.01

IN: Consider the molecule "CN1CCC=C(c2c[nH]c3c(F)cccc23)C1" and give its measured pKi.
OUT: 7.22

IN: Consider the molecule "CN1CCC=C(c2c[nH]c3c(Cl)cc(F)cc23)C1" and give its measured pKi.
OUT: 7.68

IN: Consider the molecule "Fc1ccc2c(C3=CCCNC3)n[nH]c2c1" and give its measured pKi.
OUT: 7.24

IN: Consider the molecule "COc1cccc2[nH]cc(C3=CCCN(C)C3)c12" and give its measured pKi.
OUT: 7.22

IN: Consider the molecule "CN1CCC=C(c2n[nH]c3ccccc23)C1" and give its measured pKi.
OUT: 7.06

###

system-name: 5HT2A receptor (Homo sapiens)
test-method-notes: cell-based
Design: expressed in transfected cells; host or cells: HEK293T cells, transient co-transfection
stated-conditions: 5HTA Gq EC50 (nM), BRET2 Gαq dissociation, HEK293T
Record form. Attribute: EC50. Fill in for each entry.
Entry rule: numbers only, all in nM.

IN: Find EC50 (5HT2A receptor (Homo sapiens)) for the entry "COC1(c2c[nH]c3c(Cl)cccc23)CNC1"
OUT: 294

IN: Find EC50 (5HT2A receptor (Homo sapiens)) for the entry N#Cc1cccc2c(C34CNCC3C4)n[nH]c12 (stereo not drawn)
OUT: 423

IN: Find EC50 (5HT2A receptor (Homo sapiens)) for the entry "Clc1cccc2c(C3=CCCCNC3)n[nH]c12"
OUT: 849

IN: Find EC50 (5HT2A receptor (Homo sapiens)) for the entry "Clc1cc(Br)cc2c(C3CNC3)c[nH]c12"
OUT: 949

IN: Find EC50 (5HT2A receptor (Homo sapiens)) for the entry Cc1c(F)ccc2c(C34CNCC3C4)c[nH]c12 (stereo not drawn)
OUT: 88.2

IN: Find EC50 (5HT2A receptor (Homo sapiens)) for the entry Clc1cccc2c(C34CCNCC3C4)n[nH]c12 (stereo not drawn)
OUT: 1070

IN: Find EC50 (5HT2A receptor (Homo sapiens)) for the entry Clc1cccc2c(C34CNCC3C4)n[nH]c12 (single isomer, unassigned) [Example 273]
OUT: 226

IN: Find EC50 (5HT2A receptor (Homo sapiens)) for the entry "Fc1cc(F)c2[nH]cc(C3CNC3)c2c1"
OUT: 165

IN: Find EC50 (5HT2A receptor (Homo sapiens)) for the entry "CCc1cccc2c(C3=CCCN(C4CC4)C3)n[nH]c12"
OUT: 101

IN: Find EC50 (5HT2A receptor (Homo sapiens)) for the entry "FC(F)CN1CCC=C(c2n[nH]c3c(Cl)cccc23)C1"
OUT: 1240

IN: Find EC50 (5HT2A receptor (Homo sapiens)) for the entry CCC(C)N1CCC=C(c2n[nH]c3c(Cl)cccc23)C1 (stereo not drawn)
OUT: 173

IN: Find EC50 (5HT2A receptor (Homo sapiens)) for the entry "CCCN1CC=C(c2c[nH]c3c(Cl)cccc23)CC1"
OUT: 104

IN: Find EC50 (5HT2A receptor (Homo sapiens)) for the entry "FC(F)(F)CN1CCC=C(c2n[nH]c3c(Cl)cccc23)C1"
OUT: 1570

IN: Find EC50 (5HT2A receptor (Homo sapiens)) for the entry Cc1cccc2c(C34CC3CN(C)C4)n[nH]c12 (stereo not drawn)
OUT: 684

IN: Find EC50 (5HT2A receptor (Homo sapiens)) for the entry "Cc1ccc2[nH]cc(C3=CCCN(C)C3)c2n1"
OUT: 247

IN: Find EC50 (5HT2A receptor (Homo sapiens)) for the entry "Cc1cccc2c(C3CNC3)c[nH]c12"
OUT: 444

IN: Find EC50 (5HT2A receptor (Homo sapiens)) for the entry Fc1cccc2c(C34CNCC3C4)n[nH]c12 (stereo not drawn)
OUT: 136

IN: Find EC50 (5HT2A receptor (Homo sapiens)) for the entry "CCCc1cccc2c(C3=CCCN(C)C3)c[nH]c12"
OUT: 397

IN: Find EC50 (5HT2A receptor (Homo sapiens)) for the entry Clc1cccc2c(C3=CC4CCC3NC4)n[nH]c12 (stereo not drawn)
OUT: 717

IN: Find EC50 (5HT2A receptor (Homo sapiens)) for the entry "CC(C)c1cccc2c(C3CNC3)c[nH]c12"
OUT: 316

IN: Find EC50 (5HT2A receptor (Homo sapiens)) for the entry "FC(F)(F)CCN1CCC=C(c2n[nH]c3c(Cl)cccc23)C1"
OUT: 518

IN: Find EC50 (5HT2A receptor (Homo sapiens)) for the entry Clc1cccc2c(C34CNCCC3C4)n[nH]c12 (stereo not drawn)
OUT: 120

IN: Find EC50 (5HT2A receptor (Homo sapiens)) for the entry Clc1cccc2c(C3CC4CCC(C3)N4)n[nH]c12 (stereo not drawn)
OUT: 500

IN: Find EC50 (5HT2A receptor (Homo sapiens)) for the entry "Clc1cccc2c(C3CNC3)c[nH]c12"
OUT: 68.2

IN: Find EC50 (5HT2A receptor (Homo sapiens)) for the entry Cc1cccc2c(C34CNCC3C4)c[nH]c12 (stereo not drawn)
OUT: 100

IN: Find EC50 (5HT2A receptor (Homo sapiens)) for the entry Cc1cccc2c(C34CNCCC3C4)c[nH]c12 (stereo not drawn)
OUT: 327

IN: Find EC50 (5HT2A receptor (Homo sapiens)) for the entry "CN1CCCC=C(c2n[nH]c3c(Cl)cccc23)C1"
OUT: 732

IN: Find EC50 (5HT2A receptor (Homo sapiens)) for the entry FC1(F)C2CCNCC21c1n[nH]c2c(Cl)cccc12 (stereo not drawn)
OUT: 1460

IN: Find EC50 (5HT2A receptor (Homo sapiens)) for the entry CN1CCC2CC2(c2n[nH]c3c(Cl)cc(F)cc23)C1 (stereo not drawn)
OUT: 1160

IN: Find EC50 (5HT2A receptor (Homo sapiens)) for the entry "Fc1cccc2c(C3CNC3)c[nH]c12"
OUT: 944

IN: Find EC50 (5HT2A receptor (Homo sapiens)) for the entry "CCCN1CCC=C(c2c[nH]c3c(C)c(F)ccc23)C1"
OUT: 260

IN: Find EC50 (5HT2A receptor (Homo sapiens)) for the entry Fc1cccc2c(C34CCNCC3C4)n[nH]c12 (stereo not drawn)
OUT: 236

IN: Find EC50 (5HT2A receptor (Homo sapiens)) for the entry CCCN1CCC2CC2(c2n[nH]c3c(Cl)cccc23)C1 (stereo not drawn)
OUT: 786

IN: Find EC50 (5HT2A receptor (Homo sapiens)) for the entry Fc1cc(Cl)c2[nH]nc(C34CNCC3C4)c2c1 (stereo not drawn)
OUT: 290

IN: Find EC50 (5HT2A receptor (Homo sapiens)) for the entry "Clc1cccc2c(C3=CCCCNC3)c[nH]c12"
OUT: 655

IN: Find EC50 (5HT2A receptor (Homo sapiens)) for the entry "Cc1cccc2c(N3CCNCC3)n[nH]c12"
OUT: 248

IN: Find EC50 (5HT2A receptor (Homo sapiens)) for the entry Fc1cccc2c(C34CNCCC3C4)n[nH]c12 (stereo not drawn)
OUT: 795

IN: Find EC50 (5HT2A receptor (Homo sapiens)) for the entry "CC(F)(F)CN1CCC=C(c2n[nH]c3c(Cl)cccc23)C1"
OUT: 604

IN: Find EC50 (5HT2A receptor (Homo sapiens)) for the entry CN1CCOC(c2c[nH]c3c(Cl)cccc23)C1 (stereo not drawn)
OUT: 620

###

system-name: 5HT2A receptor (Homo sapiens, UniProt P28223)
test-method-notes: cell-based
Set-up: expressed in transfected cells; host or cells: HEK293T cells, transient co-transfection
stated-conditions: HEK-293T, BRET1 beta-arrestin2 recruitment, HEK293T, normalized to 5-HT; read-out: 5HT2A β-Arr Emax (%)
measure: Emax (%)
Entry rule: numbers only, all in %.

IN: Consider the compound Fc1cccc2c(C34CCNCC3C4)n[nH]c12 (stereo not shown) [Example 229] and give its measured Emax.
OUT: 90.2

IN: Consider the compound CN1CC=C(c2c[nH]c3c(Cl)cccc23)C1 [Example 210] and give its measured Emax.
OUT: 33.6

IN: Consider the compound CN1CC=C(c2n[nH]c3c(Cl)cccc23)C1 [Example 207] and give its measured Emax.
OUT: 47.8

IN: Consider the compound CN1CC(c2c[nH]c3c(Cl)cccc23)C1 [Example 256] and give its measured Emax.
OUT: 31.7

IN: Consider the compound CCc1cccc2c(C3=CCCN(C4CC4)C3)n[nH]c12 [Example 238] and give its measured Emax.
OUT: 50

IN: Consider the compound Fc1ccc2c(C34CNCC3C4)c[nH]c2c1 (stereo not shown) [Example 281] and give its measured Emax.
OUT: 27.9

IN: Consider the compound Clc1cccc2c(C3=CC4CCC(C3)N4)n[nH]c12 (stereo not shown) [Example 221] and give its measured Emax.
OUT: 66.9

IN: Consider the compound Fc1cccc2c(C34CNCC3C4)n[nH]c12 (stereo not shown) [Example 187] and give its measured Emax.
OUT: 35

IN: Consider the compound Cc1cccc2c(C34CCNCC3C4)n[nH]c12 (stereo not shown) [Example 226] and give its measured Emax.
OUT: 52.1

IN: Consider the compound CCCN1CCC=C(c2n[nH]c3cccc(C#N)c23)C1 [Example 175] and give its measured Emax.
OUT: 31.6
